Tested on: Ac2-L-Lys-D-Ala-D-Ala peptide
Test: Association constant with Ac2-L-Lys-D-Ala-D-Ala
observation.type: Ka (M⁻¹)
Could you give me the number in M⁻¹? Just the number is fine.

// solved cases for Ka follow
CC(=O)NC1C(O[C@@H]2c3ccc(c(Cl)c3)Oc3cc4cc(c3O)Oc3ccc(cc3Cl)C[C@H]3NC(=O)[C@H](N)c5ccc(O)c(c5)Oc5cc(O)cc(c5)[C@H](NC3=O)C(=O)N[C@H]4C(=O)N[C@H]3C(=O)N[C@@H]2C(=O)N[C@H](C(=O)NCCN2CCOCC2)c2cc(O)cc(O)c2-c2cc3ccc2O)OC(CO)C(O)C1O (some centres undefined) = 34000
N[C@H]1C(=O)N[C@@H]2Cc3ccc(c(Cl)c3)Oc3cc4cc(c3O)Oc3ccc(cc3Cl)[C@@H](O)[C@@H]3NC(=O)[C@H](NC(=O)[C@@H]4NC(=O)[C@@H](NC2=O)c2cc(O)cc(c2)Oc2cc1ccc2O)c1ccc(O)c(c1)-c1c(O)cc(O)cc1[C@@H](C(=O)NC(CCC(=O)O)C(=O)O)NC3=O (some centres undefined) = 82000
CC(=O)NC1C(O[C@@H]2c3ccc(c(Cl)c3)Oc3cc4cc(c3O)Oc3ccc(cc3Cl)C[C@H]3NC(=O)[C@H](N)c5ccc(O)c(c5)Oc5cc(O)cc(c5)[C@H](NC3=O)C(=O)N[C@H]4C(=O)N[C@H]3C(=O)N[C@@H]2C(=O)N[C@H](C(=O)NCCCN(C)C)c2cc(O)cc(O)c2-c2cc3ccc2O)OC(CO)C(O)C1O (some centres undefined) = 54000

Shift focus to the following entry.
# query: Ka of entry CC(=O)N[C@@H]1[C@H](O[C@@H]2c3ccc(c(Cl)c3)Oc3cc4cc(c3O)Oc3ccc(cc3Cl)C[C@H]3NC(=O)[C@H](N)c5ccc(O)c(c5)Oc5cc(O)cc(c5)[C@H](NC3=O)C(=O)N[C@H]4C(=O)N[C@H]3C(=O)N[C@@H]2C(=O)N[C@H](C(=O)N2CCN(C)CC2)c2cc(O)cc(O[C@H]4O[C@H](CO)[C@@H](O)[C@@H](O)[C@@H]4O)c2-c2cc3ccc2O)O[C@@H](CO)[C@@H](O)[C@@H]1O
100000

* * *

System: Streptococcus pyogenes
Experiment: Subcutaneously administration into mice infected with Streptococcus pyogenes C 203
Type: functional
Settings: sc
observation.type: log10 ED50 (log10 of the value in mg/kg)
Scale: decimal log of ED50, ED50 in mg/kg.

CC(=O)N[C@@H]1[C@H](O[C@@H]2c3ccc(c(Cl)c3)Oc3cc4cc(c3O[C@@H]3O[C@@H](CO)[C@@H](O)[C@H](O)[C@@H]3NC(=O)CCCCCCC(C)C)Oc3ccc(cc3Cl)C[C@H]3NC(=O)[C@H](N)c5ccc(O)c(c5)Oc5cc(O)cc(c5)[C@H](NC3=O)C(=O)N[C@H]4C(=O)N[C@H]3C(=O)N[C@@H]2C(=O)N[C@H](C(=O)NC2CN4CCC2CC4)c2cc(O)cc(O[C@H]4O[C@H](CO)[C@@H](O)[C@@H](O)[C@@H]4O)c2-c2cc3ccc2O)O[C@@H](CO)[C@@H](O)[C@@H]1O (stereo not given in full) = -1.15

# query: log10 ED50 of entry N[C@H]1C(=O)N[C@@H]2Cc3ccc(c(Cl)c3)Oc3cc4cc(c3O)Oc3ccc(cc3Cl)[C@@H](O)[C@@H]3NC(=O)[C@H](NC(=O)[C@@H]4NC(=O)[C@@H](NC2=O)c2cc(O)cc(c2)Oc2cc1ccc2O)c1ccc(O)c(c1)-c1c(O)cc(O)cc1[C@@H](C(=O)NCCN1CCCC1)NC3=O
0.20

# query: log10 ED50 of entry CC(=O)N[C@@H]1[C@H](O[C@@H]2c3ccc(c(Cl)c3)Oc3cc4cc(c3O[C@@H]3O[C@@H](CO)[C@@H](O)[C@H](O)[C@@H]3NC(=O)CCCCCCC(C)C)Oc3ccc(cc3Cl)C[C@H]3NC(=O)[C@H](N)c5ccc(O)c(c5)Oc5cc(O)cc(c5)[C@H](NC3=O)C(=O)N[C@H]4C(=O)N[C@H]3C(=O)N[C@@H]2C(=O)N[C@H](C(=O)NCCN)c2cc(O)cc(O[C@H]4O[C@H](CO)[C@@H](O)[C@@H](O)[C@@H]4O)c2-c2cc3ccc2O)O[C@@H](CO)[C@@H](O)[C@@H]1O
-0.74

# query: log10 ED50 of entry CC(=O)N[C@@H]1[C@H](O[C@@H]2c3ccc(c(Cl)c3)Oc3cc4cc(c3O[C@@H]3O[C@@H](CO)[C@@H](O)[C@H](O)[C@@H]3NC(=O)CCCCCCC(C)C)Oc3ccc(cc3Cl)C[C@H]3NC(=O)[C@H](N)c5ccc(O)c(c5)Oc5cc(O)cc(c5)[C@H](NC3=O)C(=O)N[C@H]4C(=O)N[C@H]3C(=O)N[C@@H]2C(=O)N[C@H](C(=O)NCCCCN(C)C)c2cc(O)cc(O[C@H]4O[C@H](CO)[C@@H](O)[C@@H](O)[C@@H]4O)c2-c2cc3ccc2O)O[C@@H](CO)[C@@H](O)[C@@H]1O
-1.00

# query: log10 ED50 of entry N[C@H]1C(=O)N[C@@H]2Cc3ccc(c(Cl)c3)Oc3cc4cc(c3O)Oc3ccc(cc3Cl)[C@@H](O)[C@@H]3NC(=O)[C@H](NC(=O)[C@@H]4NC(=O)[C@@H](NC2=O)c2cc(O)cc(c2)Oc2cc1ccc2O)c1ccc(O)c(c1)-c1c(O)cc(O)cc1[C@@H](C(=O)NC(CCC(=O)O)C(=O)O)NC3=O (stereo not given in full)
0.70
